# Method notes: Hemolytic activity in human erythrocytes at 50.0 +/- 4.3 uM incubated for 1 hrs by photometric analysis relative to control
# Format: ADME, cell-based, Erythrocyte
# Run parameters: read-out: Activity
Measured endpoint: hemolysis at 1 h, 50 uM (%)
Give bare numbers, in %.

compound="CC(C)(C)c1cc(C(c2ccc(N)cc2N)P(=O)(Oc2ccccc2)Oc2ccccc2)cc(C(C)(C)C)c1O (stereo not drawn)" measured_endpoint="hemolysis at 1 h, 50 uM" number=0.9
compound="COP(=O)(OC)C(c1cc(C(C)(C)C)c(O)c(C(C)(C)C)c1)c1ccc(N)nc1N (stereo not drawn)" measured_endpoint="hemolysis at 1 h, 50 uM" number=0
compound="CC(C)OP(=O)(OC(C)C)C(c1cc(C(C)(C)C)c(O)c(C(C)(C)C)c1)c1ccc(N)nc1N (stereo not drawn)" measured_endpoint="hemolysis at 1 h, 50 uM" number=0
compound="CCOP(=O)(OCC)C(c1cc(C(C)(C)C)c(O)c(C(C)(C)C)c1)c1ccc(N)cc1N (stereo not drawn)" measured_endpoint="hemolysis at 1 h, 50 uM" number=0

For the 4 compounds below, give their hemolysis at 1 h, 50 uM values.
1. CCOP(=O)(OCC)C(c1cc(C(C)(C)C)c(O)c(C(C)(C)C)c1)c1ccc(N)nc1N (stereo not drawn)
2. COP(=O)(OC)C(c1cc(C(C)(C)C)c(O)c(C(C)(C)C)c1)c1ccc(N)cc1N (stereo not drawn)
3. CC(C)(C)c1cc(C(c2ccc(N)nc2N)P(=O)(Oc2ccccc2)Oc2ccccc2)cc(C(C)(C)C)c1O (stereo not drawn)
4. COP(=O)(Cc1cc(C(C)(C)C)c(O)c(C(C)(C)C)c1)OC

Solution:
1. 0
2. 0
3. 0.5
4. 0

---

# Tested on: Aspergillus niger
# Method notes: Antimicrobial activity against Aspergillus niger BKMF 1119 by serial dilution method
# Format: functional
Measured endpoint: MIC

These solved cases illustrate the format of a correct answer.
molecule="CCOP(=O)(OCC)C(c1cc(C(C)(C)C)c(O)c(C(C)(C)C)c1)c1ccc(N)nc1N (stereo not drawn)" target_desc="Aspergillus niger" result="> 500 µM"
molecule="CC(C)OP(=O)(OC(C)C)C(c1cc(C(C)(C)C)c(O)c(C(C)(C)C)c1)c1ccc(N)cc1N (stereo not drawn)" target_desc="Aspergillus niger" result="> 500 µM"
molecule="CCOP(=O)(OCC)C(c1cc(C(C)(C)C)c(O)c(C(C)(C)C)c1)c1ccc(N)cc1N (stereo not drawn)" target_desc="Aspergillus niger" result="> 500 µM"
molecule="CC(C)(C)c1cc(C(c2ccc(N)nc2N)P(=O)(Oc2ccccc2)Oc2ccccc2)cc(C(C)(C)C)c1O (stereo not drawn)" target_desc="Aspergillus niger" result="> 500 µM"

The following molecules each have a reported value; give each one's MIC.
1. COP(=O)(OC)C(c1cc(C(C)(C)C)c(O)c(C(C)(C)C)c1)c1ccc(N)cc1N (stereo not drawn)
2. CC(C)(C)c1cc(C(c2ccc(N)cc2N)P(=O)(Oc2ccccc2)Oc2ccccc2)cc(C(C)(C)C)c1O (stereo not drawn)
3. COP(=O)(OC)C(c1cc(C(C)(C)C)c(O)c(C(C)(C)C)c1)c1ccc(N)nc1N (stereo not drawn)
4. CC(C)OP(=O)(OC(C)C)C(c1cc(C(C)(C)C)c(O)c(C(C)(C)C)c1)c1ccc(N)nc1N (stereo not drawn)

Solution:
["> 500 µM", "> 500 µM", "> 500 µM", "> 500 µM"]
